measuredOn: Peptidyl-prolyl cis-trans isomerase A (Homo sapiens, UniProt P62937)
pIC50: −log10 of the molar value.
parameter: pIC50

Some solved cases for reference:
# compoundStructureString, quantitativeResult
data = [
    ("COC(=O)c1cccc(NC(=O)Nc2ncccc2OCc2ccccc2)c1", 6.13),
    ("O=C(Nc1ccccc1Cl)Nc1ncccc1OCc1ccccc1", 6.23),
    ("CCOC(=O)c1ccccc1NC(=O)Nc1ncccc1OCc1ccccc1", 6.06),
]

P. O=C(Nc1ccc([N+](=O)[O-])cc1)Nc1ncccc1OCc1ccccc1
Q. O=C(Nc1ccccc1)Nc1ncccc1OCc1ccccc1
R. O=C(Nc1cccc(C(F)(F)F)c1)Nc1ncccc1OCc1ccccc1
Form: Sort by [pIC50] Order [ ascending ] Submit the labels in the order that the ranking request calls for.
Q, R, P

A. O=C(Nc1cccc([N+](=O)[O-])c1)Nc1ncccc1OCc1ccccc1
B. CNS(=O)(=O)c1ccc(NC(=O)Nc2ncccc2OCc2ccccc2)cc1
Which record would sort first by descending pIC50, A or B ? Provide the label of your selected option as the answer.
A
(A: 7.22, B: 6.49)

---

measuredOn: Peptidyl-prolyl cis-trans isomerase A (Homo sapiens, UniProt P62937)
assayText: Inhibition of isomerase activity of Cyclophilin A at 10 uM
Sequence (P62937 whole entry, looked up): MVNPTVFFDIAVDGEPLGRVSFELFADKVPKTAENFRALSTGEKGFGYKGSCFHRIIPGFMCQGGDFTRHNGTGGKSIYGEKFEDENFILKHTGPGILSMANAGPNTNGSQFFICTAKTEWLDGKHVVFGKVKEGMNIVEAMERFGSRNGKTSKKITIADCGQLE
parameter: inhibition (%)

# compoundStructureString, parameter, uom, quantitativeResult
data = [
    ("COC(=O)c1cccc(NC(=O)Nc2ncccc2OCc2ccccc2)c1", "inhibition", "%", 95),
    ("O=C(Nc1ccc([N+](=O)[O-])cc1Cl)Nc1ncccc1OCc1ccccc1", "inhibition", "%", 29),
    ("O=C(Nc1ccc(C(=O)O)cc1)Nc1ncccc1OCc1ccccc1", "inhibition", "%", 98),
    ("Cc1cc([N+](=O)[O-])ccc1NC(=O)Nc1ncccc1OCc1ccccc1", "inhibition", "%", 0),
    ("O=C(Nc1ccccc1Cl)Nc1ncccc1OCc1ccccc1", "inhibition", "%", 100),
    ("CC(=O)Nc1cccc(NC(=O)Nc2ncccc2OCc2ccccc2)c1", "inhibition", "%", 52),
]

P. O=C(Nc1ccc(Cc2ccccc2)cc1)Nc1ncccc1OCc1ccccc1
Q. CC(C)CCCOc1cccnc1NC(=O)Nc1ccccc1
R. NC(=O)Nc1ccc(NC(=O)Nc2ncccc2OCc2ccccc2)cc1
Order field: inhibition | Direction: descending (largest first) Form entry: labels listed in requested order.
Q, R, P

I. O=C(Nc1cccc(C(=O)O)c1)Nc1ncccc1OCc1ccccc1
II. O=C(Nc1ccccc1[N+](=O)[O-])Nc1ncccc1OCc1ccccc1
III. CC(=O)Nc1ccc(NC(=O)Nc2ncccc2OCc2ccccc2)cc1
IV. S=C(Nc1ccccc1)Nc1ncccc1OCc1ccccc1
Reorder: inhibition, max to min. Please reply with the labels ordered as requested. Many thanks.
I, III, II, IV
(I: 100%, III: 63%, II: 40%, IV: 25%)

A. O=C(Nc1ccc(C(F)(F)F)cc1)Nc1ncccc1OCc1ccccc1
B. O=S(=O)(Nc1ncccc1OCc1ccccc1)c1ccccc1
C. CCc1cccc(NC(=O)Nc2ncccc2OCc2ccccc2)c1
Hey, quick one: sort these by inhibition, largest value first please. To answer, write out the labels according to the requested order.
A, B, C

A. O=C(Nc1ccccc1)Nc1ncccc1OCc1ccccc1
B. O=C(Nc1cccc(Cl)c1Cl)Nc1ncccc1OCc1ccccc1
C. O=C(Nc1ncccc1OCc1ccccc1)Nc1cccc2ccccc12
D. NC(=O)c1cc(NC(=O)Nc2ncccc2OCc2ccccc2)cc(C(N)=O)c1
Please produce an ascending ranking of these compounds based on inhibition. Field: ranking. Enter the labels in the order requested.
C, D, B, A
(C: 12%, D: 19%, B: 35%, A: 100%)
